- tgt: CRTH2 (Homo sapiens (Human))
- protocol.notes: CRTH2 receptor binding inhibitory activity ([3H]-PGD2 displacement, membranes of CRTH2-expressing K562 cell)
- conditions: [3H]-PGD2 displacement, membrane of CRTH2-expressing K562 cell; read-out: Ki
Give measured Ki for each item. Keep answers brief.
Give bare numbers, in nM.

Take a look at these entries with their results.
chemical.smiles	measure	measurement.unit	endpoint.result
CCOc1ccc(S(=O)(=O)N2C[C@@H](C)[C@@H](n3nc(C4(C(=O)O)CC4)c4ccccc43)C2)cc1	Ki	nM	440
CCOc1ccc(S(=O)(=O)N2C[C@@H](C)[C@@H](n3nc(CC(=O)O)c4ccc(N5CCOCC5)cc43)C2)cc1	Ki	nM	230
Cc1ccc(S(=O)(=O)N2C[C@@H](C)[C@@H](n3nc(CC(=O)O)c4ccc(F)cc43)C2)cc1	Ki	nM	1.6

The record that follows has no Ki shown yet.
[ask] Give the reported Ki for this compound. CC(C)Oc1ccc(S(=O)(=O)N2C[C@@H](C)[C@@H](n3nc(CC(=O)NS(C)(=O)=O)c4ccc(F)cc43)C2)cc1
[reply] 65

###

- tgt: CRTH2 (Homo sapiens (Human), UniProt Q9Y5Y4)
- Sequence (Q9Y5Y4 whole entry): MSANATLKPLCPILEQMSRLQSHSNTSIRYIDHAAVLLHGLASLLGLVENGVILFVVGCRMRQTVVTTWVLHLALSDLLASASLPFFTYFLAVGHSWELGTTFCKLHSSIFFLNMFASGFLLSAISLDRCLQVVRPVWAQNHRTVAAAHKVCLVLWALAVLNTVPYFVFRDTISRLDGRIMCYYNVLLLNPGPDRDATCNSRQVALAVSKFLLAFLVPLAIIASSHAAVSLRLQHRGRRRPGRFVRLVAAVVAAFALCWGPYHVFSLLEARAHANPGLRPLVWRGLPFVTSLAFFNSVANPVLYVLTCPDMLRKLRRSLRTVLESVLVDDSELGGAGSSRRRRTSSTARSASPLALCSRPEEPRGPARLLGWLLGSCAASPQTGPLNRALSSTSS
- protocol.notes: CRTH2 receptor binding inhibitory activity ([3H]-PGD2 displacement, membranes of CRTH2-expressing K562 cell)
- conditions: CRTH2 receptor binding, [3H]-PGD2 displacement, membrane of CRTH2-expressing K562 cell; categorized AAAA/AAA; read-out: Ki
measure: Ki

Example cases with answers are listed next.
compound	measure	endpoint.result
CC(C)Oc1ccc(S(=O)(=O)N2C[C@H](n3nc(CC(=O)O)c4ccc(F)cc43)C[C@H]2C#N)cc1	Ki	< 100 nM
C[C@@H]1CN(S(=O)(=O)c2ccccc2C#N)C[C@@H]1n1nc(CC(=O)O)c2ccc(F)cc21	Ki	< 100 nM
COCCOCCOc1ccc(S(=O)(=O)N2C[C@@H](C)[C@@H](n3nc(CC(=O)O)c4ccccc43)C2)cc1	Ki	100 to 5000 nM
CC(C)Oc1ccc(S(=O)(=O)N2C[C@H](n3nc(CC(=O)O)c4ccc(F)cc43)[C@@](C)(O)C2)cc1	Ki	< 100 nM

Respectfully, I request Ki for each entry included below.
1. CC(C)Oc1ccc(S(=O)(=O)N2C[C@@H](n3nc(CC(=O)O)c4ccc(F)cc43)C[C@H]2C)cc1
2. Cc1ccc2c(CC(=O)O)nn([C@H]3CN(S(=O)(=O)c4ccc(OC(F)(F)F)cc4)C[C@H]3C)c2c1
3. CC(C)Oc1ccc(S(=O)(=O)N2C[C@@H](C)[C@@H](n3nc(CC(=O)O)c4ccc(F)cc43)C2)cc1
4. Cc1c(CC(=O)O)c2ccccc2n1[C@@H]1C[C@H](C)N(S(=O)(=O)c2ccc(OC(F)F)cc2)C1
5. CCOc1ccc(S(=O)(=O)N2C[C@@H](C)[C@@H](n3nc(CC(=O)O)c4c(C)cccc43)C2)cc1
6. CCOc1ccc(S(=O)(=O)N2C[C@@H](C)[C@@H](n3nc(C(O)C(=O)O)c4ccccc43)C2)cc1 (single isomer, unassigned) [Compound I-307]

[reply]
1: < 100 nM; 2: < 100 nM; 3: < 100 nM; 4: 100 to 5000 nM; 5: 100 to 5000 nM; 6: 100 to 5000 nM

For every item below, please supply its Ki.
1. CCOc1ccc(S(=O)(=O)N2C[C@@H](C)[C@@H](n3nc(C4(C(=O)O)CC4)c4ccccc43)C2)cc1
2. CCOc1ccc(S(=O)(=O)N2C[C@@H](C)[C@@H](n3nc(CC(=O)O)c4cc(C)ccc43)C2)cn1
3. C[C@@H]1CN(S(=O)(=O)c2ccc(C3CC3)cc2Cl)C[C@@H]1n1nc(CC(=O)O)c2ccc(F)cc21
4. COCCOc1ccc(S(=O)(=O)N2C[C@@H](C)[C@@H](n3nc(CC(=O)O)c4ccccc43)C2)cc1

[reply]
1: 100 to 5000 nM; 2: < 100 nM; 3: < 100 nM; 4: < 100 nM

###

- tgt: UniProt Q13258
- protocol.notes: Human DP1 inhibitory activity in DP1-expressing cell (PGD2-induced cAMP)
- Format: cell-based
- conditions: category of cAMP IC50, human DP1 receptor expressing Jurkut cell
measure: IC50

compound	IC50
C[C@@H]1CN(S(=O)(=O)c2ccc(OC(F)F)cc2)C[C@@H]1n1nc(CC(=O)O)c2ccc(F)cc21	< 100 nM
CC(C)Oc1ccc(S(=O)(=O)N2C[C@H](n3nc(CC(=O)O)c4ccc(F)cc43)C[C@@H]2COCCCO)cc1	100 to 5000 nM

Parameters: items (list). Returns: IC50 for each item.
1. CC(C)Oc1ccc(S(=O)(=O)N2C[C@@H](n3nc(CC(=O)O)c4ccc(F)cc43)C[C@@H]2c2ccccc2F)cc1
2. CC(C)Oc1ccc(S(=O)(=O)N2C[C@H](n3nc(CC(=O)O)c4ccc(F)cc43)CC2(C)C)cc1
3. CCOc1ccc(S(=O)(=O)N2C[C@@H](C)[C@@H](n3nc(CC(=O)O)c4ccccc43)C2)c(C(C)O)c1 (stereo partly shown)

[reply]
1. 100 to 5000 nM
2. 100 to 5000 nM
3. < 100 nM

Would you be so kind as to report IC50 for each listed record?
1. Cc1ccc2c(CC(=O)O)nn([C@H]3CN(S(=O)(=O)c4ccc(OC(F)F)cc4)C[C@H]3C)c2c1
2. CCOc1ccc(S(=O)(=O)N2C[C@@H](C)[C@@H](n3nc(C(C)(OC)C(=O)O)c4ccccc43)C2)cc1 (stereo partly shown) [Compound I-285]

[reply]
1. < 100 nM
2. 100 to 5000 nM

###

- tgt: Human DP1 receptor (Homo sapiens (Human))
- Sequence (Q13258 whole entry): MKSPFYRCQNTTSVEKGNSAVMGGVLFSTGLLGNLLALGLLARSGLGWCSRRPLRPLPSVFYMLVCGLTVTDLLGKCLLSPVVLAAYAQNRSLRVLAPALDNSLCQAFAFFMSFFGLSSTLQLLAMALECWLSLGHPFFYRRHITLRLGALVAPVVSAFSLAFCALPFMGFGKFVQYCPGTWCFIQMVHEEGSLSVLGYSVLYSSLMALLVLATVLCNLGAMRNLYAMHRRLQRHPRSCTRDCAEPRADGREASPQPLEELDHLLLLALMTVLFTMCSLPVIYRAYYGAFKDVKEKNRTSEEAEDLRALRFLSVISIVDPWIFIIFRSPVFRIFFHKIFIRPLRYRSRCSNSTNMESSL
- protocol.notes: Human DP1 inhibitory activity in DP1-expressing cell (PGD2-induced cAMP)
- Type: cell-based
- conditions: category of cAMP IC50, human DP1 receptor expressing Jurkut cell
I'd be grateful if you could share measured IC50 for these entries.

Example compounds with recorded IC50:
compound	IC50
C[C@@H]1CN(S(=O)(=O)c2ccc(OC(F)F)cc2)C[C@@H]1n1nc(CC(=O)O)c2ccc(Cl)cc21	< 0.1 µM
CCOc1ccc(S(=O)(=O)N2C[C@@H](C)[C@@H](n3nc(CC(=O)O)c4ccccc43)C2)c(C=NOC)c1	0.1 to 5 µM
COc1ccc(S(=O)(=O)N2C[C@@H](C)[C@@H](n3nc(CC(=O)O)c4ccc(F)cc43)C2)nc1	0.1 to 5 µM
CC(C)Oc1ccc(S(=O)(=O)N2C[C@@H](C)[C@@H](n3nc(CC(=O)O)c4cc(F)c(F)cc43)C2)cc1	< 0.1 µM
CCOc1ccc(S(=O)(=O)N2C[C@@H](C)[C@@H](n3nc(CC(=O)O)c4cc(Cl)ccc43)C2)cc1	< 0.1 µM

// each compound listed below needs its IC50
1. CCSCCOc1ccc(S(=O)(=O)N2C[C@@H](C)[C@@H](n3nc(CC(=O)O)c4ccccc43)C2)cc1
2. C[C@@H]1CN(S(=O)(=O)c2ccc(OCCOC(C)(C)C)cc2)C[C@@H]1n1nc(CC(=O)O)c2ccccc21
3. CC(C)Oc1ccc(S(=O)(=O)N2C[C@H](n3nc(CC(=O)O)c4ccc(F)cc43)[C@@](C)(O)C2)cc1
4. CC(C)Oc1ccc(S(=O)(=O)N2C[C@@H](C)[C@@H](n3cc(CC(=O)O)c4ccc(F)cc43)C2)cc1
5. C[C@@H]1CN(S(=O)(=O)c2ccc3occc3c2)C[C@@H]1n1nc(CC(=O)O)c2ccccc21

[reply]
["< 0.1 µM", "0.1 to 5 µM", "0.1 to 5 µM", "< 0.1 µM", "0.1 to 5 µM"]

State recorded IC50 for all listed compounds.
1. CC(C)Oc1ccc(S(=O)(=O)N2C[C@H](n3nc(CC(=O)O)c4ccc(F)cc43)C[C@@H]2c2nc[nH]n2)cc1
2. CC(C)Oc1ccc(S(=O)(=O)N2C[C@@H](C)[C@@H](n3nc(CC(=O)NC#N)c4ccc(F)cc43)C2)cc1
3. C=CCOC[C@H]1C[C@@H](n2nc(CC(=O)O)c3ccc(F)cc32)CN1S(=O)(=O)c1ccc(OC(C)C)cc1

[reply]
0.1 to 5 µM
< 0.1 µM
0.1 to 5 µM

Answer for every listed entry: what is its IC50? The entries follow.
1. C[C@]1(F)CN(S(=O)(=O)c2ccc(F)cc2)C[C@@H]1n1nc(CC(=O)O)c2ccccc21 (racemic)
2. CCOc1ccc(S(=O)(=O)N2C[C@@H](C)[C@@H](n3nc(CC(=O)O)c4ccc(Cl)cc43)C2)cn1
3. CCOc1ccc(S(=O)(=O)N2C[C@@H](C)[C@@H](n3nc(CC(=O)O)c4ccccc43)C2)c(CNC(C)=O)c1

[reply]
1. 0.1 to 5 µM
2. < 0.1 µM
3. 0.1 to 5 µM
